# Test system: KRAS G12V-dependent Ba/F3 cells
# assay: Ba/F3 proliferation assay, KRAS G12V;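 further: proliferation IC50 in KRAS G12V-dependent Ba/F3 cells read by AlamarBlue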
# Format: cell-based
# condition-description: Mus musculus, BaF3, 72 h, AlamarBlue
pIC50: −log10 of the molar value.
Recorded pIC50 values for a group of compounds are listed next.
endpoint: pIC50

• C[C@H](Oc1cc(-n2cncc3ccnc2-3)nc(-c2noc3c2CCC[C@@]32CCCc3sc(N)c(C#N)c32)n1)[C@@H]1CCCN1C = 8.22
• C[C@H](Oc1cc(N2CCNC3(CC3)C2)nc(-c2noc3c2CCC[C@@]32CCCc3sc(N)c(C#N)c32)n1)[C@@H]1C[C@@H](F)CN1C = 6.92
• C[C@H](Oc1cc(-c2ccn(C)n2)nc(-c2noc3c2CCC[C@@]32CCCc3sc(N)c(C#N)c32)n1)[C@@H]1CCCN1C = 8.30

---

# assay: Plasma protein binding assay (PPB), equilibrium dialysis, 10% FCS in PBS
# Type: in vitro ADME
# condition-description: bovine, read-out: PPB 10% FCS (% fu)
# Experimental: Binding of test compounds to plasma was determined using equilibrium dialysis (ED) and quantitative mass spectrometry interfaced with liquid chromatography (LC-MS). […] After incubation, protein was precipitated from aliquots of each chamber and the concentration of test compound in the supernatant of the plasma-containing compartment (Cserum) and of the buffer-containing compartment (Cbuffer) was determined by LC-MS. […]
endpoint: fraction unbound

- C[C@H](Oc1cc(N2CCOC3(COC3)C2)nc(-c2noc3c2CCC[C@@]32CCCc3sc(N)c(C#N)c32)n1)[C@@H]1CCCN1C: 0.16
- C[C@H](Oc1cc(-c2ccn(Cc3ncco3)n2)nc(-c2noc3c2CCC[C@@]32CCCc3sc(N)c(C#N)c32)n1)[C@@H]1CCCN1C: 0.06
- C[C@H](Oc1cc(N2CCNC3(CCCC3)C2)nc(-c2noc3c2CCC[C@@]32CCCc3sc(N)c(C#N)c32)n1)[C@@H]1CCCN1C: 0.1
- C[C@H](Oc1cc(-n2cnc3cccnc32)nc(-c2noc3c2CCC[C@@]32CCCc3sc(N)c(C#N)c32)n1)[C@@H]1CCCN1C: 0.03
- CCN1CCN(c2cc(O[C@@H](C)[C@@H]3C[C@@H](F)CN3C)nc(-c3noc4c3CCC[C@@]43CCCc4sc(N)c(C#N)c43)n2)CC12CC2: 0.02
- C[C@H](Oc1cc(-n2cc3c(n2)CNC3)nc(-c2noc3c2CCC[C@@]32CCCc3sc(N)c(C#N)c32)n1)[C@@H]1CCCN1C: 0.47
- C[C@H](Oc1cc(-c2ccc(N)nc2)nc(-c2onc3c2CCC[C@@]32CCCc3sc(N)c(C#N)c32)n1)[C@@H]1CCCN1C: 0.35
- C[C@H](Oc1cc(-c2cncs2)nc(-c2noc3c2CCC[C@@]32CCCc3sc(N)c(C#N)c32)n1)[C@@H]1CCCN1C: 0.23
- CO[C@@H]1C[C@@H]([C@H](C)Oc2cc(N3CCNC4(CC4)C3)nc(-c3noc4c3CCC[C@@]43CCCc4sc(N)c(C#N)c43)n2)N(C)C1: 0.14
- C[C@H](Oc1cc(N2Cc3cnn(C)c3C2)nc(-c2onc3c2CCC[C@@]32CCCc3sc(N)c(C#N)c32)n1)[C@@H]1CCCN1C: 0.48
- C[C@H](Oc1cc(-n2ccc(C3(O)COC3)n2)nc(-c2noc3c2CCC[C@@]32CCCc3sc(N)c(C#N)c32)n1)[C@@H]1CCCN1C: 0.16
- C[C@H](Oc1cc(-c2ccn([C@H]3CCOC3)n2)nc(-c2noc3c2CCC[C@@]32CCCc3sc(N)c(C#N)c32)n1)[C@@H]1CCCN1C: 0.08
- C[C@H](Oc1cc(-c2cnn(C)n2)nc(-c2noc3c2CCC[C@@]32CCCc3sc(N)c(C#N)c32)n1)[C@@H]1C[C@@H](F)CN1C: 0.09
